# reported DC50; entries follow
- SYSTEM: G2019S LRRK2 (Homo sapiens, UniProt Q5S007, G2019S)
- Construct: expressed in transfected cells; host or cells: HEK293 (ATCC CRL-1573), transient transfection, ubiquitin promoter
- Sequence (Q5S007 whole entry G2019S): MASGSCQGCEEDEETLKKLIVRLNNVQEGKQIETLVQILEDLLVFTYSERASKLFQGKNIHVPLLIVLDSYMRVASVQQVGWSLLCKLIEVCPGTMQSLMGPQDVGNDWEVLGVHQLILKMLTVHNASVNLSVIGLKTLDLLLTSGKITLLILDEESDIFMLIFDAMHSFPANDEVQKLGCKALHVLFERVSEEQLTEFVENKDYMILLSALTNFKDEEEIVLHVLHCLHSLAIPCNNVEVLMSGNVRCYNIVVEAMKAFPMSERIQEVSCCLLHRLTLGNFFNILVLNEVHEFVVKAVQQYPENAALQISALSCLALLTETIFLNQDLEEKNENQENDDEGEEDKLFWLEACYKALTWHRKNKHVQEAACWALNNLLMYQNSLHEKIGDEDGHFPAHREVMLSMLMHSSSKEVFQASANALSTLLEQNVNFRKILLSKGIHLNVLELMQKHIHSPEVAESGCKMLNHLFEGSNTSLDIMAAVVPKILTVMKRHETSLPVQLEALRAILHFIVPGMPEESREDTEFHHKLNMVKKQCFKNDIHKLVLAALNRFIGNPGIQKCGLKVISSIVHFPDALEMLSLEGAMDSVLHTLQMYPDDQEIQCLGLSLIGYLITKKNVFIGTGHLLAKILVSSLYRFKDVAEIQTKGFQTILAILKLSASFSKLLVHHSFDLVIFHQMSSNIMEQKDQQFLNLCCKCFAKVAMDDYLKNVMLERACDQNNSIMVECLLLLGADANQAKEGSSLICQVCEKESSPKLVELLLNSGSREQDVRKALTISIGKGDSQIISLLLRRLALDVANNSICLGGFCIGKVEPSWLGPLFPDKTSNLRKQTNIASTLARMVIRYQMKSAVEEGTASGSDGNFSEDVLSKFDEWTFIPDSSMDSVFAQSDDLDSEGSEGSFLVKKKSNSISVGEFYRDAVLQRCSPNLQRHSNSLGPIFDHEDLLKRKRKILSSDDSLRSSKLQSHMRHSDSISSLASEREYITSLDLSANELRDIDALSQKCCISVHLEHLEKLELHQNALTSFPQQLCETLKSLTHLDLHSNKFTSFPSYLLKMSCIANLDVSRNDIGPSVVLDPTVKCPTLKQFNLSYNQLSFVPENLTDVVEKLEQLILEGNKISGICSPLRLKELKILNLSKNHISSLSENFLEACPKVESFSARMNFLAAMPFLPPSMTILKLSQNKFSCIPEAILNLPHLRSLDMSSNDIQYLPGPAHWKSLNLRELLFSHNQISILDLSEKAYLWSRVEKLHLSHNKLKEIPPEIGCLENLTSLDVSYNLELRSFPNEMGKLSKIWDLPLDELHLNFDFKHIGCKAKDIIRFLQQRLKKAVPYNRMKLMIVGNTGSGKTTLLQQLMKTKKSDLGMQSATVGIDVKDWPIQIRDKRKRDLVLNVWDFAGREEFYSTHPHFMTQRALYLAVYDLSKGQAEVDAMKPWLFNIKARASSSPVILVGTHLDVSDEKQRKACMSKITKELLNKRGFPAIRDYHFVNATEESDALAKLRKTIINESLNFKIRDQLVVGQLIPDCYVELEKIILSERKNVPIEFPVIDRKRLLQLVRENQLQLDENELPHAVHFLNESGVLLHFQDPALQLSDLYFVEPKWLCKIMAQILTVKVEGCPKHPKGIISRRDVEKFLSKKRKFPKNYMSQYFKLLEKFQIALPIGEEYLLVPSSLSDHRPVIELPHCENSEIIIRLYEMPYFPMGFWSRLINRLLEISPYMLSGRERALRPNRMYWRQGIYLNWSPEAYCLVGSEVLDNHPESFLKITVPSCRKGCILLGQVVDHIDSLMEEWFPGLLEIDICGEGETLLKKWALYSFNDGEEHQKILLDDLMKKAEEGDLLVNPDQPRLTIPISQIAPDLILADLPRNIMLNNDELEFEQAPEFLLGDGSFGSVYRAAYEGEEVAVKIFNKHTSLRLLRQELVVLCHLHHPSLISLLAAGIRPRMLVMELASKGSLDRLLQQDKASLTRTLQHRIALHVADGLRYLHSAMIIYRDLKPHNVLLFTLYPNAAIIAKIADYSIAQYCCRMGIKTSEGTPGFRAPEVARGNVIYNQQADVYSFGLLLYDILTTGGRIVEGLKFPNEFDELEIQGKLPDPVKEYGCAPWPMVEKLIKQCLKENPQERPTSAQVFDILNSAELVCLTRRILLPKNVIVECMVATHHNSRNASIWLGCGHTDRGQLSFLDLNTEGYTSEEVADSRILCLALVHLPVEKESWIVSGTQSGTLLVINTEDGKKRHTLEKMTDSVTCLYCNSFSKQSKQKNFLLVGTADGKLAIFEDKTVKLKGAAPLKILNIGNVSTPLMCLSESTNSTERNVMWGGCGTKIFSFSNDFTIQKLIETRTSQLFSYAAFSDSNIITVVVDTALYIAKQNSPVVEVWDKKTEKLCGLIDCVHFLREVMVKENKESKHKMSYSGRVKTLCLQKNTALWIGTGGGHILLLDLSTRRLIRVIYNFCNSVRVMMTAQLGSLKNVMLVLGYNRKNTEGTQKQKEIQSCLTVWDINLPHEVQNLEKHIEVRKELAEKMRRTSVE
- TEST_DESCRIPTION: LRRK2 degradation assay, G2019S LRRK2-HiBit expressed from plasmid in HEK293 cells
- Assay type: cell-based
- TEST_CONTEXT: HEK293 cells transfected with HiBit-tagged G2019S LRRK2, 24 hours compound incubation
- Protocol: The assay measures the degradation of wildtype and G2019S LRRK2 tagged with a HiBit tag on the C-terminus of the protein that was expressed from a mammalian expression vector, driven by the ubiquitin promoter in HEK293 cells. Each compound dose-response was repeated on two separate days, on three separate plates each day. […] While the transfection mixes were incubating, HEK293 cells (acquired from ATCC; ATCC CRL-1573) were harvested with trypsin. […] The cells were mixed well and counted. […]

// worked examples, DC50 included
INSERT INTO results (compound, system, result) VALUES
  ('C[C@H]1CN(c2cc(-c3n[nH]c4ccc(OC5(C)CC5)cc34)ncn2)CCN1CCOCCOCCOCCOc1ccc2c(c1)C(=O)N(C1CCC(=O)NC1=O)C2=O (some centres unmarked)', 'G2019S LRRK2 (Homo sapiens, UniProt Q5S007, G2019S)', '10 to 50 nM'),
  ('CC(C)Oc1ccc2[nH]nc(-c3cc(N4CCN(CCN5CCC(CN6CCN(c7ccc8c(c7)C(=O)N(C7CCC(=O)NC7=O)C8=O)CC6)CC5)[C@@H](C)C4)ncn3)c2c1 (some centres unmarked)', 'G2019S LRRK2 (Homo sapiens, UniProt Q5S007, G2019S)', '< 10 nM'),
  ('CC(C)Oc1ccc2[nH]nc(-c3cc(N4CCO[C@H](CN5CCN(CC6CCN(c7ccc8c(c7)C(=O)N(C7CCC(=O)NC7=O)C8=O)CC6)CC5)C4)ncn3)c2c1 (some centres unmarked)', 'G2019S LRRK2 (Homo sapiens, UniProt Q5S007, G2019S)', '< 10 nM'),
  ('CC(C)Oc1ccc2[nH]nc(-c3cc(N4CCN(CCN5CCN(CC6CCN(c7ccc8c(c7)C(=O)N(C7CCC(=O)NC7=O)C8=O)CC6)CC5)[C@@H](C)C4)ncn3)c2c1 (some centres unmarked)', 'G2019S LRRK2 (Homo sapiens, UniProt Q5S007, G2019S)', '10 to 50 nM');

Qu. Entry CC(C)Oc1ccc2[nH]nc(-c3cc(N4CCN(CC[C@@H]5CCN(CC6CCN(c7ccc8c(c7)C(=O)N(C7CCC(=O)NC7=O)C8=O)CC6)C5)CC4)ncn3)c2c1 (some centres unmarked) needs its DC50 filled in; supply it.
Ans. 10 to 50 nM

Values were extracted from patent US20250114356A1.
